Source of measurements: patent US20210380623A1

- assayDetails: aqueous solubility
- Format: physicochemical
- assayConditions: water
Consider the following compounds; for each one, report its solubility.
Answers are plain numbers, in µg/mL.

Each of the following entries comes with a recorded value; kindly state solubility for each.
1. OC[C@H]1O[C@H](Sc2cncc(Br)c2)[C@H](O)[C@@H](n2cc(-c3cc(F)c(Cl)c(F)c3)nn2)[C@H]1O [Ref 3, reference compound]
2. O=P(O)(O)OCO[C@@H]1[C@@H](n2cc(-c3cc(F)c(Cl)c(F)c3)nn2)[C@@H](O)[C@@H](CO)O[C@@H]1Sc1cncc(Br)c1
3. O=S(=O)(O)OC[C@H]1O[C@H](Sc2cncc(Br)c2)[C@H](O)[C@@H](n2cc(-c3cc(F)c(F)c(F)c3)nn2)[C@H]1O

-- reply
7
800
9600
